- STUDY TARGET: HIF1A
- EXPERIMENT SUMMARY: HeLa, 100 nM transfected, 24 h, mean of 3
- TEST SETTINGS: ASO
Bases are written 5' to 3'; sugars and linkages follow in the same order, as letters with counts (s phosphorothioate, o phosphodiester; PS: all linkages phosphorothioate). C may stand for cytosine or 5-methylcytosine; the collection does not tell. l = locked nucleic acid (LNA); d = 2'-deoxy (DNA)
Label YES when caspase activation (% of PBS control) is at or above 400; anything below gets NO.

Field: example entries. Status: answers known.
GTTACTGCCTTCTTAC (sugars l2 d1 l2 d7 l4, PS) :: NO
TACTGCCTTCTTA (sugars l1 d9 l3, PS) :: NO
GTTACTGCCTTCTTAC (sugars ldlllddddddldddl, PS) :: YES
TACTGCCTTCTTA (sugars lldlddddddldl, PS) :: NO
TGGCAAGCATCCTGTA (sugars ldldlddddddllldl, PS) :: NO
GTTACTGCCTTCTTAC (sugars ldddlddddddllldl, PS) :: NO
GTTACTGCCTTCTTAC (sugars l2 d2 l1 d7 l4, PS) :: NO
TGGCAAGCATCCTGTA (sugars ldlllddddddllldl, PS) :: YES

Q: Reported caspase activation (% of PBS control) at or above 400? TGGCAAGCATCCTGTA (sugars ldldlddddddddlll, PS)
Ans: NO

* * *

- STUDY TARGET: HIF1A
- EXPERIMENT SUMMARY: HeLa, 100 nM transfected, 24 h, mean of 3
- TEST SETTINGS: ASO
Bases are written 5' to 3'; sugars and linkages follow in the same order, as letters with counts (s phosphorothioate, o phosphodiester; PS: all linkages phosphorothioate). C may stand for cytosine or 5-methylcytosine; the collection does not tell. l = locked nucleic acid (LNA); d = 2'-deoxy (DNA)
ENDPOINT: caspase activation (% of PBS control)
Answers are plain numbers.

# count of solved cases: 5
TGGCAAGCATCCTGTA (sugars lddllddddddllddl, PS) :: 388
GTTACTGCCTTCTTAC (sugars l1 d1 l1 d12 l1, PS) :: 103
TTACTGCCTTCTT (sugars l1 d1 l2 d6 l3, PS) :: 237
GTTACTGCCTTCTTAC (sugars lddldddddddlddll, PS) :: 129
GTTACTGCCTTCTTAC (sugars ldddldddddddlddl, PS) :: 142

Field: caspase activation (% of PBS control). Fill in for each record below.
1. GTTACTGCCTTCTTAC (sugars l1 d13 l2, PS)
2. GGCAAGCATCCTG (sugars l2 d8 l3, PS)
3. GTTACTGCCTTCTTAC (sugars ldlldddddddldlll, PS)
4. TGGCAAGCATCCTGTA (sugars llldlddddddldddl, PS)

Ans:
87.3
657
195
253

Each of the following entries comes with a recorded value; kindly state caspase activation (% of PBS control) for each.
1. TTACTGCCTTCTT (sugars l1 d11 l1, PS)
2. TTACTGCCTTCTT (sugars l1 d9 l3, PS)

Ans:
1. 82.9
2. 131

* * *

- STUDY TARGET: HIF1A
- EXPERIMENT SUMMARY: HeLa, 100 nM transfected, 24 h, mean of 3
- TEST SETTINGS: ASO
Bases are written 5' to 3'; sugars and linkages follow in the same order, as letters with counts (s phosphorothioate, o phosphodiester; PS: all linkages phosphorothioate). C may stand for cytosine or 5-methylcytosine; the collection does not tell. l = locked nucleic acid (LNA); d = 2'-deoxy (DNA)
ENDPOINT: caspase activation (% of PBS control)
One number for each entry.

TGGCAAGCATCCTGTA (sugars l3 d8 l1 d1 l3, PS) :: 477
GTTACTGCCTTCTTAC (sugars l2 d9 l1 d1 l3, PS) :: 157

Each sequence below has a reported value. Please supply its caspase activation (% of PBS control).
1. GTTACTGCCTTCT (sugars l1 d11 l1, PS)
2. GGCAAGCATCCTG (sugars l3 d8 l2, PS)
3. TGGCAAGCATCCTGTA (sugars l3 d1 l1 d6 l5, PS)
4. GTTACTGCCTTCTTAC (sugars llddlddddddldddl, PS)
5. GTTACTGCCTTCTTAC (sugars l1 d11 l4, PS)

Ans:
1: 112; 2: 642; 3: 536; 4: 191; 5: 125

Please state, for each entry, its recorded caspase activation (% of PBS control).
1. GTTACTGCCTTCTTAC (sugars llldlddddddldddl, PS)
2. GGCAAGCATCCTG (sugars l1 d2 l1 d7 l2, PS)
3. GGCAAGCATCCTG (sugars lddlddddddldl, PS)

Ans:
272
361
198

Please go through the list and note caspase activation (% of PBS control) for each sequence.
1. ACTGCCTTCTTAC (sugars l2 d8 l3, PS)
2. TGGCAAGCATCCTGTA (sugars l5 d7 l1 d1 l2, PS)
3. CAAGCATCCTGTA (sugars l4 d6 l1 d1 l1, PS)

Ans:
1. 209
2. 390
3. 159

I'm hoping you can list caspase activation (% of PBS control) for every sequence here, please.
1. TGGCAAGCATCCTGTA (sugars l2 d2 l1 d8 l3, PS)
2. TACTGCCTTCTTA (sugars l2 d1 l1 d8 l1, PS)
3. GTTACTGCCTTCTTAC (sugars l2 d10 l1 d1 l2, PS)
4. GTTACTGCCTTCTTAC (sugars llddlddddddllddl, PS)
5. GTTACTGCCTTCTTAC (sugars ldlllddddddlddll, PS)
6. ACTGCCTTCTTAC (sugars l2 d8 l1 d1 l1, PS)
7. TGGCAAGCATCCTGTA (sugars ldldldddddddldll, PS)
8. GTTACTGCCTTCTTAC (sugars l4 d11 l1, PS)

Ans:
1: 397; 2: 222; 3: 128; 4: 231; 5: 425; 6: 199; 7: 290; 8: 159

List reported caspase activation (% of PBS control) for each of these sequences:
1. GTTACTGCCTTCT (sugars l4 d7 l2, PS)
2. GTTACTGCCTTCTTAC (sugars l1 d3 l1 d7 l4, PS)

Ans:
196
259
